FYI, the data here is from ChEMBL document CHEMBL3608271.

Experiment: Cytotoxicity against human Bel7402 cells after 72 hrs by MTT assay
Assay type: functional, cell-based
Details: Bel-7402, 72 h
measure name: pIC50
In simple prose, pIC50 is minus the logarithm base ten of a concentration in moles per litre.

**Q:** Determine its reported pIC50: O=c1[nH]cc(F)c(=O)[nH]1 [FLUOROURACIL]
**A:** 5.00

**Q:** Determine its reported pIC50: CC(C)=CCc1c(O)cc(CO)cc1O
**A:** 5.11

====

Kindly state IC50 for each of the entries shown.
Test: Cytotoxicity against human Bel7402 cells after 72 hrs by MTT assay
Format: functional, cell-based
Conditions: Bel-7402, 72 h

**Q:** Determine its reported IC50: CC1(C)C=Cc2c(O)cc(CO)cc2O1
**A:** > 40 µM

**Q:** Determine its reported IC50: CC1(C)C=Cc2c(cc3c(c2O)C(=O)OC3)O1
**A:** > 40 µM

**Q:** Determine its reported IC50: CC(C)(O)CCc1c(O)cc(CO)cc1O
**A:** > 40 µM
